Overview of recorded AUC(0-t) for various compounds
- protocol summary: Pharmacokinetic assessment of X842 in dogs (IV, single oral, repeated oral)
- Assay type: in vivo
- run parameters: male, beagle, dog, plasma, po, 1.2 mg/kg, male dogs, single oral X842 1.2 mg/kg; analyte as labelled; read-out: AUC(0-24h)
measurement name: AUC(0-t) (ng·h/mL)

compound | measurement name | unit info | result number
Cc1cccc(C)c1CNc1cc(C(=O)NCCOC(=O)CCCC(=O)O)cn2c(C)c(C)nc12 [X842, linaprazan glurate] | AUC(0-t) | ng·h/mL | 65.1
Cc1cccc(C)c1CNc1cc(C(=O)NCCO)cn2c(C)c(C)nc12 | AUC(0-t) | ng·h/mL | 436

---

- protocol summary: Pharmacokinetic assessment of X842 in rats (IV, single oral, repeated oral)
- Format: in vivo, Sprague-Dawley rats
- run parameters: male, Sprague-Dawley, rat, plasma, po, 0.6 mg/kg, male rats, single oral X842 0.6 mg/kg; analyte as labelled; read-out: t1/2 (converted)
measurement name: half-life (min)

compound structure | measurement name | unit info | result number
Cc1cccc(C)c1CNc1cc(C(=O)NCCO)cn2c(C)c(C)nc12 | half-life | min | 132

---

Cmax overview
- protocol summary: Pharmacokinetic assessment of X842 in dogs (IV, single oral, repeated oral)
- Type: in vivo
- run parameters: beagle, dog, plasma; female dogs, single oral X842 0.3 mg/kg; analyte as labelled
measurement name: Cmax (ng/mL)

compound | result number
Cc1cccc(C)c1CNc1cc(C(=O)NCCO)cn2c(C)c(C)nc12 [linaprazan] | 10.4
Cc1cccc(C)c1CNc1cc(C(=O)NCCOC(=O)CCCC(=O)O)cn2c(C)c(C)nc12 [X842, linaprazan glurate] | 6.1

---

- protocol summary: Pharmacokinetic assessment of X842 in rats (IV, single oral, repeated oral)
- Assay type: in vivo, Sprague-Dawley rats
- run parameters: female, Sprague-Dawley, rat, plasma, po, 0.6 mg/kg, female rats, single oral X842 0.6 mg/kg; analyte as labelled
measurement name: Cmax

compound | result
Cc1cccc(C)c1CNc1cc(C(=O)NCCOC(=O)CCCC(=O)O)cn2c(C)c(C)nc12 [X842, linaprazan glurate] | 0.0087 µg/mL
Cc1cccc(C)c1CNc1cc(C(=O)NCCO)cn2c(C)c(C)nc12 [linaprazan] | 0.0135 µg/mL

---

- protocol summary: Pharmacokinetic assessment of X842 in dogs (IV, single oral, repeated oral)
- Format: in vivo
- run parameters: beagle, dog, plasma, 1.2 mg/kg; female dogs, repeat oral X842, Day 1; analyte as labelled; read-out: t1/2 Day 1 (converted)
- Protocol: Pharmacokinetic assessments were conducted by Shanghai Medicilon Inc. Using C18 solid-phase extraction (Shimadzu UFLC-20A, ACE 3, C18, 3.0 µm, 150 × 4.6 mm; Shimadzu, Japan) with the following conditions: mobile phase A: 1 M ammonium acetate in water, mobile phase B: 100% acetonitrile; gradient 0–5 min: 100% A, 5–30 min: 85% A, 35–63 min: 75% A, 63–65 min: 55% A, 65–70 min: 0% A, 72–87 min: 100% A; flow rate 0.7 mL/min; column temperature 30 °C ([Weidof and Covey, 1992]). […]

compound | unit info | half-life at 1 day
Cc1cccc(C)c1CNc1cc(C(=O)NCCO)cn2c(C)c(C)nc12 | h | 3.2
Cc1cccc(C)c1CNc1cc(C(=O)NCCOC(=O)CCCC(=O)O)cn2c(C)c(C)nc12 [X842, linaprazan glurate] | h | 1.1
